The reader will find reported growth values listed item by item below.
test system: HS 578T breast; assay: NCI-60 one-dose screen, 48 h (100 = growth as untreated, 0 = no growth, -100 = all killed); settings: 10 µM unless noted
The panel holds about 83,000 compounds, 20% with a hit somewhere; the sample as a whole holds those more often.
Give just the numeric value; % need not be written.

INSERT INTO measurements (chemsmiles, measurementtarget, valuetype, testresult) VALUES
  ('COc1cnc2c(c1)C(=O)c1c-2n(CCCN2CCNCC2)c(=O)c2cc(F)ccc12', 'HS 578T breast', 'growth', 38.6),
  ('O=C1NCCc2c1noc2-c1ccccc1', 'HS 578T breast', 'growth', 111),
  ('c1ccc(-c2nc(Nc3nccnn3)c3ccccc3n2)cc1', 'HS 578T breast', 'growth', 98.8),
  ('O=C(NCCCl)NCCN1c2nc3ccccc3cc2Sc2cc3ccccc3nc21', 'HS 578T breast', 'growth', 58),
  ('COc1ccc2c(c1)sc1nc(-c3ccc(N(C)C)cc3)cn12', 'HS 578T breast', 'growth', 122);

Kindly review the next molecule as well.
Entry under review: O=C(CNc1ccc2c(c1)C(=O)c1ccccc1C2=O)Nc1ccc2c(c1)C(=O)c1ccccc1C2=O . Reported growth?
-1.05

---

system: HT29 colon; assay: NCI-60 one-dose screen, 48 h; settings: 10 µM unless noted
This is part of a sample that, as a whole, favours compounds with a hit. Of some 83,000 tested, about 20% had one in any assay. The source made the active and inactive calls. The calls were made as follows: active = growth percent below 10; inactive = the rest.
Respond with a class label; see label 1 = active, label 0 = inactive

# example entries with known answers
INSERT INTO measurements (compound, answerlabel) VALUES
  ('COc1cc(/C(Cl)=C/C=C/C(=O)c2c(C)[n+]([O-])c3ccc(Cl)cc3[n+]2[O-])cc(OC)c1OC', 'label 0'),
  ('O=C(/C=C/c1ccc(C(F)(F)F)cc1)c1ccc(Nc2nc(NCCO)nc(NCCO)n2)cc1', 'label 1'),
  ('Cc1nn(-c2ccccc2)c2nc(N)c(C3=NCCO3)nc12', 'label 0'),
  ('CC(C)Sc1nc(Cl)c(C#N)c(-c2ccc(F)cc2)n1', 'label 0'),
  ('COc1ccc(CC(=O)Nc2nn3c(-c4cc(C(F)(F)F)cc(C(F)(F)F)c4)nnc3s2)cc1', 'label 0'),
  ('COc1cc(/C=N/NC(=O)c2ccc(C(F)(F)F)nc2Nc2ccc(Cl)cc2C)ccc1O', 'label 0');

// param item: Cc1ccccc1NC(=O)NC(CC(N)=O)c1ccc2c(c1)nc(-c1cccc(Oc3ccc(C(C)(C)C)cc3)c1)n2CCCN1CCCCC1C (centres undefined) ; yields the recorded call
label 1

Query: recorded result category for C[C@@H]1CN(c2nc3c(cc2F)c(=O)c(C(=O)O)cn3C(C)(C)C)C[C@H](C)N1 in this test
label 0

How did this test come out for CCCCCc1c(C)[nH]c(/C=C2\N=C(c3ccc[nH]3)C=C2Oc2ccc(Cl)cc2)c1C ?
label 1

---

system: SNB-75 CNS; test: NCI-60 one-dose screen, 48 h (100 = growth as untreated, 0 = no growth, -100 = all killed); conditions: 10 µM unless noted
Compounds without any hit were thinned out: in the full panel of roughly 83,000, 20% have a hit.
Below is a list of entries, each paired with its recorded growth value.
Kindly provide the numeric value in % only, without the unit symbol.

Example entries begin here.
INSERT INTO measurements (compound, valuetype, endpointunit, testresult) VALUES
  ('C[N+]1(C)C2CC[C@@H]1CC(OC(=O)C(O)c1ccccc1)C2 (stereo partly specified)', 'growth', '%', 99),
  ('O=C1CNc2cc(Cl)ccc2N1', 'growth', '%', 89.8),
  ('O=C(NC1CCS(=O)(=O)C1)c1ccc(C(=O)c2ccccc2)cc1 (stereo unspecified)', 'growth', '%', 90.9),
  ('Cc1ccc2nc(-c3ccc(N(C)C)c(Br)c3)cn2c1', 'growth', '%', 103),
  ('O=C1Nc2ccc(C(=O)O)c(O)c2C1=O', 'growth', '%', 103);

Can you share its growth? I mean this compound: N#Cc1ccccc1C#Cc1ccccc1C#Cc1ccc(OCCCCCCOc2ccc(C#Cc3ccccc3C#Cc3ccccc3C#N)cc2)cc1
106
